B1: Hairpin Ribozyme (parent)
chain: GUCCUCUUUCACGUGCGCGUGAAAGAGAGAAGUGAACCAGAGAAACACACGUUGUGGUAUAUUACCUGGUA

Variants of: B1
Experiment: self-cleavage, relative activity (ratio to wild type); higher = more cleavage; co-transcriptional
# binarize self-cleavage: threshold 0.3 inclusive, high side T, low side F

Example entries begin here.
GUCCUCUUUCGCGUGCGCGUGAAAGAGAGAAGUGAACCAGAGAAACACACGUUGUGGAAUAUUACCUGGUA ... T
GUCCUCUUUCACGUGCGCGUGAAAGAGAGAAGUGAACCAGCGAAACACACGUUGUGGAAUAUUACCUGGUA ... T
GUCCUCUUUCACGUGCCCGUGAAAGAGAGAAGUGAACCAGAGAAACACACGUUGUAGUAUAUUACCUGGUA ... F

# bool: self-cleavage of `GUCUUCUUUCACGUGCGCGUGAAAGAGAGAAGUGAACCAGAGAAACACACCUUGUGGUAUAUUACCUGGUA` >= 0.3
T

Given `GUCCUCUUUCACGUGCGCGUGAAAGAGAGAAGUGAACCAGAGAAACACACGUUGAGAUAUAUUACCUGGUA` , state whether its self-cleavage is at least 0.3.
F

Every entry's value here was drawn from the RNAGym collection of RNA variant scans (doi:10.7554/elife.80360).
